# 5-hydroxytryptamine receptor 7 (Homo sapiens): Ki values follow
# Sequence (P34969 whole entry): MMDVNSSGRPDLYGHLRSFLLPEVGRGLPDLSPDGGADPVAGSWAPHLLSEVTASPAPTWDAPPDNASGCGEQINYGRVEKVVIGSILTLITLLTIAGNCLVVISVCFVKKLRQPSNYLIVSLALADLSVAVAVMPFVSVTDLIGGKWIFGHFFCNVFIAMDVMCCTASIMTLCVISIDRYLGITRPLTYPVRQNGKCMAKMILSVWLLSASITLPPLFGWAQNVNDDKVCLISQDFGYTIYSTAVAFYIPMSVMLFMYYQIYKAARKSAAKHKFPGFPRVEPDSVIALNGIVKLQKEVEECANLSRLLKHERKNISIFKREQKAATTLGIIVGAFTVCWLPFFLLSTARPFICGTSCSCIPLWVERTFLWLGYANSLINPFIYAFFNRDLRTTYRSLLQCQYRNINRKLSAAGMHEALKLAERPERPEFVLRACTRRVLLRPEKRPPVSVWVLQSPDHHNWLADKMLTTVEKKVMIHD
Assay Readout: Ki (nM)

smiles_repr=Cc1sc2nc(CCCCN3CCN(c4ccccc4)CC3)[nH]c(=O)c2c1C experimental_system="5-hydroxytryptamine receptor 7 (Homo sapiens)" quantitative_readout=357
smiles_repr=O=c1c2ccccc2ncn1CCCCN1CCN(c2cccc(Cl)c2)CC1 experimental_system="5-hydroxytryptamine receptor 7 (Homo sapiens)" quantitative_readout=502
smiles_repr=O=c1[nH]c(CCCCCN2CCN(c3ccc(Cl)cc3)CC2)nc2ccccc12 experimental_system="5-hydroxytryptamine receptor 7 (Homo sapiens)" quantitative_readout=101
smiles_repr=CCOc1ccccc1N1CCN(CCCCCn2cnc3ccccc3c2=O)CC1 experimental_system="5-hydroxytryptamine receptor 7 (Homo sapiens)" quantitative_readout=6.88
smiles_repr=NC(=O)c1ccccc1NC(=O)CCCCN1CCN(c2cccc(Cl)c2)CC1 experimental_system="5-hydroxytryptamine receptor 7 (Homo sapiens)" quantitative_readout=168
smiles_repr=O=c1c2ccccc2ncn1CCCCCN1CCN(c2ccccc2)CC1 experimental_system="5-hydroxytryptamine receptor 7 (Homo sapiens)" quantitative_readout=307
smiles_repr=Cc1sc2nc(CCCCCN3CCC(Cc4ccccc4)CC3)[nH]c(=O)c2c1C experimental_system="5-hydroxytryptamine receptor 7 (Homo sapiens)" quantitative_readout=185
smiles_repr=O=c1c2ccccc2ncn1CCCCCN1CCN(c2ccc(Cl)cc2)CC1 experimental_system="5-hydroxytryptamine receptor 7 (Homo sapiens)" quantitative_readout=12.9
smiles_repr=O=c1[nH]c(CCCCCN2CCN(c3cccc(Cl)c3)CC2)nc2ccccc12 experimental_system="5-hydroxytryptamine receptor 7 (Homo sapiens)" quantitative_readout=11.9
smiles_repr=Cc1sc2nc(CCCCCN3CCN(c4ccccc4)CC3)[nH]c(=O)c2c1C experimental_system="5-hydroxytryptamine receptor 7 (Homo sapiens)" quantitative_readout=30.1
